What follows is a collection of log10(MIC) values obtained with Staphylococcus aureus ATCC 25923.
Annotation: log10 of MIC, µM basis.

smiles str: CC[C@H](C)[C@H](NC(=O)[C@H](Cc1ccccc1)NC(=O)[C@@H](NC(=O)[C@H](Cc1ccccc1)NC(=O)[C@H](CCCN=C(N)N)NC(=O)[C@H](CCCCN)NC(=O)[C@H](CCCN=C(N)N)NC(=O)[C@H](CCCCN)NC(=O)[C@H](Cc1ccccc1)NC(=O)[C@H](CC(C)C)NC(=O)[C@@H](NC(=O)[C@@H](N)Cc1ccc(O)cc1)C(C)C)[C@@H](C)CC)C(=O)O
system name: Staphylococcus aureus ATCC 25923
log10(MIC): 2.30
--
smiles str: CC[C@H](C)[C@H](NC(=O)CNC(=O)[C@H](C)NC(=O)[C@H](CC(C)C)NC(=O)[C@H](C)NC(=O)[C@@H]1CCCN1C(=O)[C@H](CC(C)C)NC(=O)[C@@H](N)Cc1ccccc1)C(=O)N[C@@H](C)C(=O)NCC(=O)N[C@@H](CC(C)C)C(=O)N[C@@H](CC(C)C)C(=O)NCC(=O)N[C@@H](CCCCN)C(=O)N[C@H](C(=O)N[C@@H](Cc1ccccc1)C(N)=O)[C@@H](C)CC
system name: Staphylococcus aureus ATCC 25923
log10(MIC): 0.49

Exercise: What does the record list as log10(MIC) for CC[C@H](C)[C@H](NC(=O)[C@H](CCCCN)NC(=O)[C@H](CCCCN)NC(=O)CNC(=O)[C@H](C)NC(=O)CNC(=O)[C@H](Cc1ccccc1)NC(=O)[C@@H](NC(=O)[C@H](CO)NC(=O)CNC(=O)[C@H](CC(C)C)NC(=O)[C@H](CC(C)C)NC(=O)CN)[C@@H](C)CC)C(=O)N[C@@H](C)C(=O)N[C@H]1CSSC[C@@H](C(=O)O)NC(=O)[C@H](CC(C)C)NC(=O)CNC(=O)[C@H](CO)NC(=O)[C@H](CC(C)C)NC(=O)[C@H](C)NC1=O ?
Solution: 1.50

Exercise: Follow-up entry: CC(C)[C@H](NC(=O)[C@H](CCCN=C(N)N)NC(=O)[C@H](Cc1c[nH]c2ccccc12)NC(=O)[C@H](CCCN=C(N)N)NC(=O)[C@@H](NC(=O)[C@H](CCCCN)NC(=O)[C@H](Cc1c[nH]c2ccccc12)NC(=O)[C@H](CCCN=C(N)N)NC(=O)[C@@H](NC(=O)[C@H](CCCN=C(N)N)NC(=O)[C@@H](N)Cc1c[nH]c2ccccc12)C(C)C)C(C)C)C(=O)N[C@@H](CCCCN)C(N)=O
Solution: 0.30

Exercise: Now consider CC[C@H](C)[C@H](NC(=O)[C@@H]1CCCN1C(=O)[C@H](Cc1ccccc1)NC(=O)[C@@H](N)Cc1ccccc1)C(=O)N[C@H](C(=O)NCC(=O)N[C@@H](CCCCN)C(=O)N[C@@H](CC(C)C)C(=O)N[C@@H](CC(C)C)C(=O)N[C@@H](CO)C(=O)NCC(=O)N[C@@H](CC(C)C)C(=O)N[C@@H](Cc1ccccc1)C(N)=O)C(C)C .
Solution: 2.18

Exercise: Request: CC(C)[C@H](NC(=O)[C@H](Cc1ccc(O)cc1)NC(=O)[C@H](CO)NC(=O)[C@H](CCCCN)NC(=O)[C@@H](N)Cc1c[nH]c2ccccc12)C(=O)N[C@@H](CCCN=C(N)N)C(=O)N[C@@H](CCCN=C(N)N)C(=O)N[C@@H](Cc1c[nH]c2ccccc12)C(=O)N[C@@H](CCCN=C(N)N)C(=O)N[C@@H](CO)C(=O)N[C@@H](CCCN=C(N)N)C(=O)N[C@@H](Cc1ccc(O)cc1)C(N)=O
Solution: 1.51

Exercise: Moving on to the next molecule: CC(C)C[C@H](NC(=O)[C@H](C)NC(=O)[C@@H](N)CO)C(=O)N[C@H](C(=O)NCC(=O)N[C@H]1CSSC[C@@H](C(=O)N[C@@H](Cc2ccccc2)C(=O)NCC(=O)N[C@@H](CCCN=C(N)N)C(=O)O)NC(=O)[C@@H]2CCCN2C(=O)[C@H](CCCCN)NC(=O)[C@@H]2CCCN2C(=O)[C@@H]2CCCN2C(=O)[C@H](Cc2ccc(O)cc2)NC(=O)[C@H](CO)NC(=O)[C@H](CCCCN)NC(=O)[C@H]([C@@H](C)O)NC(=O)[C@H](Cc2c[nH]c3ccccc23)NC1=O)C(C)C
Solution: 0.78

Exercise: What about this molecule? CC(C)C[C@H](NC(=O)[C@H](C)NC(=O)[C@H](Cc1cnc[nH]1)NC(=O)[C@H](Cc1cnc[nH]1)NC(=O)CNC(=O)[C@H](CC(C)C)NC(=O)[C@@H](N)Cc1cnc[nH]1)C(=O)N[C@@H](CC(=O)O)C(=O)N[C@@H](Cc1cnc[nH]1)C(=O)N[C@@H](CC(C)C)C(=O)N[C@@H](CC(C)C)C(=O)N[C@@H](CCCCN)C(=O)O
Solution: 3.95

Exercise: Please answer likewise for CC[C@H](C)[C@H](NC(=O)[C@@H](N)CCCN=C(N)N)C(=O)N[C@@H](CCCN=C(N)N)C(=O)N[C@@H](CCCN=C(N)N)C(=O)N[C@@H](Cc1c[nH]c2ccccc12)C(=O)N[C@@H](CCCCN)C(=O)N[C@@H](Cc1ccccc1)C(=O)N[C@@H](CCCN=C(N)N)C(=O)N[C@@H](Cc1c[nH]c2ccccc12)C(=O)O
Solution: 0.11
